Target: Flag-tagged MAGL enzyme (Homo sapiens)
Sequence (Q99685 1-303): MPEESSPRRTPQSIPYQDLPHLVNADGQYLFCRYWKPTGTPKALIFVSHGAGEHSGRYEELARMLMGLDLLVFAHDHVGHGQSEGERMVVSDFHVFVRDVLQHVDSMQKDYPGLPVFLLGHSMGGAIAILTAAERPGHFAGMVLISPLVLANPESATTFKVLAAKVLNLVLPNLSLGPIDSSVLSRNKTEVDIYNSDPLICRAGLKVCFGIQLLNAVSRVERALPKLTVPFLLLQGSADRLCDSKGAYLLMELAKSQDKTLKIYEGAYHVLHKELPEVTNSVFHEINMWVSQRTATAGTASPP
Assay: Reversible MAGL inhibition, washout of immobilized Flag-tagged MAGL enzyme (Example C)
Format: biochemical
Details: pre-washout compound concentration 1 μM
Quantity Measured: degree to which MAGL enzymatic activity returned following washout (%)

Smiles Text	Test Value
COc1ncccc1-c1cc(C(F)(F)F)n(C2CC3(C2)CN(C(=O)c2cc(O)ccc2F)C3)n1	99
O=C(c1cc(O)ccc1F)N1CC2(CC(n3nc(C(F)(F)F)cc3-c3ccccn3)C2)C1	123
COc1ccc(-c2cc(C(F)(F)F)n(C3CC4(C3)CN(C(=O)c3cc(O)ccc3F)C4)n2)cn1	89
O=C(c1cc(O)ccc1F)N1CC2(CC(n3nc(-c4ccc(=O)[nH]c4)cc3C(F)(F)F)C2)C1	122
O=C(c1cc(O)ccc1F)N1CC2(CC(n3nc(-c4ccc[nH]c4=O)cc3C(F)(F)F)C2)C1	135

* * *

biological target: human MAGL (Homo sapiens, UniProt Q99685); construct: recombinant MAGL enzyme (aa 2-303 RBC, internal preparation); test: MAGL inhibition potency, 4-nitrophenyl acetate (4NPA) hydrolysis, absorbance 405 nm (Example A); type: biochemical; details: Method 12: Reaction Biology MAGL enzyme, 15 nM; 4NPA substrate; read-out: MAGL Potency (Detection Method)
pIC50: −log10 of the molar value.
Consider the following compounds and their measured pIC50 readings.

Compound	Subject Of Test	pIC50
O=C(c1cc(O)ccc1F)N1CC2(CC(n3nc(C(F)(F)F)cc3-c3cncc(F)c3)C2)C1 [Compound 13]	human MAGL (Homo sapiens, UniProt Q99685)	6.30 to 6.82
O=C(c1cc(O)ccc1F)N1CC2(CC(n3nc(C(F)(F)F)cc3-c3ccc(=O)[nH]c3)C2)C1 [Compound 9]	human MAGL (Homo sapiens, UniProt Q99685)	6.30 to 6.82
O=C(c1cc(O)ccc1F)N1CC2(CC(n3nc(-c4ccncc4)cc3C(F)(F)F)C2)C1 [Compound 8]	human MAGL (Homo sapiens, UniProt Q99685)	> 7.30
